Taken from ChEMBL document CHEMBL3885861.

Listing: Mono of selected compounds
# Species on record: Rattus norvegicus
# experimental.protocol: Open TG-GATES - Regimen: Daily Repeat
# Format: toxicity, organism-based, Sprague-Dawley
# Set-up: regimen Daily Repeat, gender Male, age 6 weeks
# measurement.context: in vivo, po, 0 mg/kg, […], tissue Blood, route gavage, dose level Control, time 7 day
reported.property: Mono (%)

compound	reported.property	number
CC(C)OC(=O)C(C)(C)Oc1ccc(C(=O)c2ccc(Cl)cc2)cc1 [FENOFIBRATE]	Mono	2.8
CN1C(=O)CN=C(c2ccccc2)c2cc(Cl)ccc21	Mono	9.4
CCCNC(=O)NS(=O)(=O)c1ccc(Cl)cc1 [CHLORPROPAMIDE]	Mono	2.6
CC1=C(/C=C/C(C)=C/C=C/C(C)=C/CO)C(C)(C)CCC1	Mono	2.2
CN(C)CCN(Cc1cccs1)c1ccccn1	Mono	2
CCOc1ccc(NC(=O)CC(C)O)cc1 (stereo not drawn)	Mono	2.6
COC1=CC(=O)C[C@@H](C)[C@]12Oc1c(Cl)c(OC)cc(OC)c1C2=O	Mono	3
CCOC(=O)CCC(=O)O[C@H]1[C@H](O[C@@H]2[C@@H](C)[C@H](O[C@H]3C[C@@](C)(OC)[C@@H](O)[C@H](C)O3)[C@@H](C)C(=O)O[C@H](CC)[C@@](C)(O)[C@H](O)[C@@H](C)C(=O)[C@H](C)C[C@@]2(C)O)O[C@H](C)C[C@@H]1N(C)C [ERYTHROMYCIN ETHYLSUCCINATE]	Mono	2.4

---

Listing: Plat of selected compounds
# Species: Rattus norvegicus
# experimental.protocol: Open TG-GATES - Regimen: Single
# Format: toxicity, organism-based, Sprague-Dawley
# Set-up: regimen Single, gender Male, age 6 weeks
# measurement.context: in vivo, po, 100 mg/kg, 3 h, tissue Blood, route gavage, dose level Low

compound	unit.text	Plat
COc1ccc2[nH]c([S+]([O-])Cc3ncc(C)c(OC)c3C)nc2c1 (centres undefined)	x10_4/uL	122.2
COC1=CC(=O)C[C@@H](C)[C@]12Oc1c(Cl)c(OC)cc(OC)c1C2=O	x10_4/uL	121.7
NC(N)=Nc1nc(CSCCC(N)=NS(N)(=O)=O)cs1	x10_4/uL	112.1
CCOC(=O)CCC(=O)O[C@H]1[C@H](O[C@@H]2[C@@H](C)[C@H](O[C@H]3C[C@@](C)(OC)[C@@H](O)[C@H](C)O3)[C@@H](C)C(=O)O[C@H](CC)[C@@](C)(O)[C@H](O)[C@@H](C)C(=O)[C@H](C)C[C@@]2(C)O)O[C@H](C)C[C@@H]1N(C)C [ERYTHROMYCIN ETHYLSUCCINATE]	x10_4/uL	111.6

---

# Organism: Rattus norvegicus
# experimental.protocol: Open TG-GATES - Regimen: Daily Repeat
# Assay type: toxicity, organism-based, Sprague-Dawley
# Set-up: regimen Daily Repeat, gender Male, age 6 weeks
# measurement.context: in vivo, po, 0 mg/kg, […], tissue Blood, route gavage, dose level Control, time 28 day
Listing: Lym of selected compounds

compound	Lym [%]
CC1=C(/C=C/C(C)=C/C=C/C(C)=C/CO)C(C)(C)CCC1 [RETINOL]	83.8
NC(N)=Nc1nc(CSCCC(N)=NS(N)(=O)=O)cs1 [FAMOTIDINE]	80.8
COc1ccc2[nH]c([S+]([O-])Cc3ncc(C)c(OC)c3C)nc2c1 (stereo not drawn) [OMEPRAZOLE]	83.2
NNC(=O)c1ccncc1 [ISONIAZID]	85.8
CCOC(=O)CCC(=O)O[C@H]1[C@H](O[C@@H]2[C@@H](C)[C@H](O[C@H]3C[C@@](C)(OC)[C@@H](O)[C@H](C)O3)[C@@H](C)C(=O)O[C@H](CC)[C@@](C)(O)[C@H](O)[C@@H](C)C(=O)[C@H](C)C[C@@]2(C)O)O[C@H](C)C[C@@H]1N(C)C [ERYTHROMYCIN ETHYLSUCCINATE]	81.8
CN(C)CCCN1c2ccccc2CCc2ccccc21 [IMIPRAMINE]	80.6
CN1C(=O)CN=C(c2ccccc2)c2cc(Cl)ccc21 [DIAZEPAM]	83.6
CCCNC(=O)NS(=O)(=O)c1ccc(Cl)cc1 [CHLORPROPAMIDE]	78.8
